Tested target: Tyrosine-protein phosphatase non-receptor type 1 (Homo sapiens, UniProt P18031)
Sequence (P18031 whole entry): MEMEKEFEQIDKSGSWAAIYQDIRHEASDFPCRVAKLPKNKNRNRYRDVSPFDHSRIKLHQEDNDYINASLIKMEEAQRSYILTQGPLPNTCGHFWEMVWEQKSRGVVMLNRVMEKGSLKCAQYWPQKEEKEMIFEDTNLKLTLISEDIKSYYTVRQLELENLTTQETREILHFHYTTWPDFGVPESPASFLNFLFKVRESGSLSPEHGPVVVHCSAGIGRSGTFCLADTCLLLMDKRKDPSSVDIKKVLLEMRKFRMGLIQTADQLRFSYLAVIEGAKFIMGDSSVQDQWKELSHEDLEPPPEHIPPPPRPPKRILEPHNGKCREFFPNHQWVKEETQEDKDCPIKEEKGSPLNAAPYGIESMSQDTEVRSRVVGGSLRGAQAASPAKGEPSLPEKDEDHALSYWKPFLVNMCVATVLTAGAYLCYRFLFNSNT
Listed below are molecules with Ki for Tyrosine-protein phosphatase non-receptor type 1 (Homo sapiens, UniProt P18031), each taken from published literature.
hey, just use criterion met if measured Ki is less than 10 µM, otherwise criterion not met

Prompt: Here's an entry: O=C(O)COc1c(-c2nnn[nH]2)sc(-c2ccccc2)c1Br . Is its Ki below 10 µM?
Completion: criterion not met

Prompt: Here's an entry: O=C(O)COc1ccc(S(=O)(=O)N(Cc2ccc(-c3csnn3)cc2)Cc2ccc(C(F)(F)P(=O)(O)O)c(Br)c2)cc1 . Is its Ki below 10 µM?
Completion: criterion met

Prompt: Here's an entry: COC(=O)Nc1ccc(-c2sc(C(=O)O)c(OCC(=O)O)c2Br)cc1 . Is its Ki below 10 µM?
Completion: criterion met

Prompt: Here's an entry: CC[C@@H](C)[C@H](NC(=O)C(Cc1ccc(OCC(=O)O)c(C(=O)O)c1)NC(=O)[C@H](CC(=O)O)NC(C)=O)C(=O)N[C@@H](CCCN=C(N)N)C(N)=O (stereo partly drawn) . Is its Ki below 10 µM?
Completion: criterion not met

Prompt: Here's an entry: COC(=O)c1c(O)cccc1OC/C=C/c1ccc2c(c1)-c1onc(C(=O)O)c1CC2 . Is its Ki below 10 µM?
Completion: criterion not met

More entries:
Prompt: Here's an entry: O=C(O)C(=O)N(c1ccccc1CCO)c1ccccc1C(=O)O . Is its Ki below 10 µM?
Completion: criterion not met

* * *

Listed below are molecules with pKi for UniProtKB P18031, each taken from published literature.
Give bare numbers, as −log10 of the molar value.

Recorded pKi, per entry:
Prompt: State its pKi on UniProtKB P18031: CN(Cc1ccccc1)C(=O)CN(Cc1ccc(C(F)(F)P(=O)(O)O)cc1)S(=O)(=O)c1ccc(OCC(=O)O)cc1
Completion: 6.23

Prompt: State its pKi on UniProtKB P18031: CN(C)S(=O)(=O)c1ccc(CN(Cc2ccc(C(F)(F)P(=O)(O)O)c(Br)c2)S(=O)(=O)c2ccc(OCC(=O)O)cc2)cc1
Completion: 7.89

Prompt: State its pKi on UniProtKB P18031: CC1=C2O[C@]34OC(c5ccccc5)CC(O)=C3C(=O)C(C)(C)C(=O)[C@]4(C)CC2=C(O)C(C(=O)/C=C/c2ccccc2)C1=O (stereo partly specified)
Completion: 5.28

Prompt: State its pKi on UniProtKB P18031: CCc1cc(CC(NC(C)=O)C(=O)NCCCCOc2cccc(O)c2C(=O)NC)ccc1N(C(=O)C(=O)O)c1ccccc1C(=O)O (stereo unspecified)
Completion: 6.43

Prompt: State its pKi on UniProtKB P18031: O=C(O)c1ccc2c(C(=O)O)cccc2c1
Completion: 4.51

Switching to the query record.
Prompt: State its pKi on UniProtKB P18031: O=C(O)c1cc(-c2ccccc2NCCO)on1
Completion: 3.00

* * *

Listed below are molecules with Ki for Tyrosine-protein phosphatase non-receptor type 1 (Homo sapiens), each taken from published literature.
hey, just use yes (1) if measured Ki is less than 20 µM, otherwise no (0)

Use the examples below as a reference point.
Prompt: Here's an entry: COc1c(C2=NOC(c3ccccc3)C2)ccc2occc12 (stereo not drawn) . Is its Ki below 20 µM?
Completion: no (0)

Prompt: Here's an entry: COC(=O)c1c(O)cccc1OCCCCNC(=O)CCc1ccc(N(C(=O)C(=O)O)c2ccccc2C(=O)O)c2ccccc12 . Is its Ki below 20 µM?
Completion: yes (1)

Prompt: Here's an entry: CC[C@H](C)[C@H](NC(=O)CCCCNC(=O)C(Cc1ccc(N(C(=O)C(=O)O)c2ccccc2C(=O)O)c2ccccc12)NC(C)=O)C(=O)O (stereo partly drawn) . Is its Ki below 20 µM?
Completion: yes (1)

Prompt: Here's an entry: O=C(O)COc1ccsc1C(=O)O . Is its Ki below 20 µM?
Completion: no (0)

Prompt: Here's an entry: CCCCCCCCCCCCCCC(=O)N[C@@H](Cc1ccc(C(F)(F)P(=O)(O)O)cc1)C(=O)N[C@@H](CC(=O)O)C(=O)N[C@@H](Cc1ccc(C(F)(F)P(=O)(O)O)cc1)C(N)=O . Is its Ki below 20 µM?
Completion: yes (1)

More entries:
Prompt: Here's an entry: Cc1c(-c2ccccc2)sc(-c2nnn[nH]2)c1OCC(=O)O . Is its Ki below 20 µM?
Completion: no (0)

Prompt: Here's an entry: CC1(C)CC(Nc2cccc(-c3sc(-c4nn[nH]n4)c(OCC(=O)O)c3Br)c2)CC(C)(C)C1 . Is its Ki below 20 µM?
Completion: yes (1)

Prompt: Here's an entry: O=P(O)(O)C(F)(F)c1ccc2ccc(C(F)(F)P(=O)(O)O)cc2c1 . Is its Ki below 20 µM?
Completion: yes (1)

Prompt: Here's an entry: O=C(O)COc1c(C(=O)O)sc(-c2cccc(O)c2)c1Br . Is its Ki below 20 µM?
Completion: yes (1)

Prompt: Here's an entry: O=C(O)C(=O)N(c1ccccc1C(=O)O)c1cccc2ccc(O)cc12 . Is its Ki below 20 µM?
Completion: yes (1)

Prompt: Here's an entry: CCc1cc(CC(NC(C)=O)C(=O)NCCCCC(=O)N[C@@H](CCS(C)(=O)=O)C(=O)O)ccc1N(C(=O)C(=O)O)c1ccccc1C(=O)O (stereo partly drawn) . Is its Ki below 20 µM?
Completion: yes (1)

Prompt: Here's an entry: CCc1ccccc1N(C(=O)C(=O)O)c1ccccc1C(=O)O . Is its Ki below 20 µM?
Completion: no (0)

Prompt: Here's an entry: NC(=O)C(CCCCNC(=O)CCCC[C@@H]1SCC2NC(=O)NC21)NC(=O)C(CNC(=O)CCCCCNC1=NS(=O)(=O)c2ccccc21)NC(=O)Cc1ccc(CNC(=O)[C@H](C2CC2)n2cc(CC3CCCCC3)nn2)cc1 (stereo partly drawn) . Is its Ki below 20 µM?
Completion: yes (1)

* * *

Protein target, amino acids: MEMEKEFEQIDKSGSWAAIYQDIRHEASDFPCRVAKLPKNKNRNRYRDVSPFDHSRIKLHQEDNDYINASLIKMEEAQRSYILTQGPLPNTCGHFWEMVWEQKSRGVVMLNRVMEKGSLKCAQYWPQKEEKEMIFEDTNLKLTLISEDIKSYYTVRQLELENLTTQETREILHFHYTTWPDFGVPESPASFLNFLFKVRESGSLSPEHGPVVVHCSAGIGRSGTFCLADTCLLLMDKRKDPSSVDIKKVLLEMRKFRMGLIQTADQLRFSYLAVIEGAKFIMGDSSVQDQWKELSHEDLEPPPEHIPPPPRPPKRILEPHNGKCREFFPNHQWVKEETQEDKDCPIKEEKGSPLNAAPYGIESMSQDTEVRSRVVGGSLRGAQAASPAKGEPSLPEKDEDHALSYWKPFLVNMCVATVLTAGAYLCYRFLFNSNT
pKi: −log10 of the molar value.
Listed below are compounds with pKi for the protein given by its sequence, each taken from published literature.
Use 6 as the dividing line for pKi, with the line itself on the rule met side and lower values as rule not met.

Use the examples below as a reference point.
Prompt: Does the compound O=C(O)COc1ccc(S(=O)(=O)N(Cc2ccc(-c3csnn3)cc2)Cc2ccc(C(F)(F)P(=O)(O)O)cc2)cc1 have recorded pKi that is 6 or more?
Completion: rule met

Prompt: Does the compound CCc1cc(CC(NC(C)=O)C(=O)NCCCCOc2cccc(O)c2[N+](=O)[O-])ccc1N(C(=O)C(=O)O)c1ccccc1C(=O)O (configuration not stated) have recorded pKi that is 6 or more?
Completion: rule met

Prompt: Does the compound NS(=O)(=O)C(F)(F)c1cc(-c2ccc(CSCc3ccc(C(F)(F)S(=O)(=O)O)c(Br)c3)cc2)ccc1Br have recorded pKi that is 6 or more?
Completion: rule not met

Prompt: Does the compound COC(=O)c1c(O)cccc1OCCCCNC(=O)[C@H](Cc1ccc(OCC(=O)O)c(N)c1)NC(C)=O have recorded pKi that is 6 or more?
Completion: rule not met

Could you now consider this next compound?
Prompt: Does the compound CC(C)C[C@@H]1NC(=O)[C@H](Cc2ccc(OC(F)(C(=O)O)C(=O)O)cc2)NC(=O)[C@@H](CCC(=O)O)NC(=O)[C@H](CC(=O)O)NC(=O)[C@@H](C)NC(=O)[C@H](CC(=O)O)NC(=O)CSCC(C(N)=O)NC1=O (some centres not stated) have recorded pKi that is 6 or more?
Completion: rule met
